biological target: human neurotensin receptor 1 (NTR1) prepared from CHO cells recombinantly expressing the human receptor (human) (UniProt P30989); test: radioligand displacement, 125I-(Tyr3-neurotensin) on human NTR1 from CHO cells
Sequence (P30989 whole entry): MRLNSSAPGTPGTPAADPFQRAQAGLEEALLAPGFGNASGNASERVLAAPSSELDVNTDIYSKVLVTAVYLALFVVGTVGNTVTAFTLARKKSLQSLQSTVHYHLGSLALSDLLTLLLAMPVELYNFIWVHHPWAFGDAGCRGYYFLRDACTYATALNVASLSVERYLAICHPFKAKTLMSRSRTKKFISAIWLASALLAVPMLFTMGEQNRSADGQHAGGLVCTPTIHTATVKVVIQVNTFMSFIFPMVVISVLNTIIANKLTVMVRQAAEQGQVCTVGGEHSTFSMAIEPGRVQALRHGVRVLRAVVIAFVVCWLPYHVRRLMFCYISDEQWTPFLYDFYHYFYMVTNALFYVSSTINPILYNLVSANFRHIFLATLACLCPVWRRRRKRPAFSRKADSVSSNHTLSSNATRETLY
ASSAY_READOUT: IC50
Report as: number unit

Could you tell me which IC50 is on file for 1206-Glutar-Ttds-Lys(1206-Glutar-Ttds)-Ttds-Asn-Ala-Val-Pro-Asn-Leu-Arg-Gly-Asp-Leu-Gln-Val-Leu-Ala- (peptide) ?
7.5 nM

Name the recorded IC50 for 1206-Glutar-Ttds3-Asn-Ala-Val-Pro-Asn-Leu-Arg-Gly-Asp-Leu-Gln-Val-Leu-Ala-Gln-Lys-Val-Ala-Arg-Thr-GA (peptide) .
9.9 nM

Returns the measured IC50 for the input substance. Input: 1206-Glutar-Ttds-Lys(DOTA)-Ttds-GABA-Asn-Ala-Val-Pro-Asn-Leu-Arg-Gly-Asp-Leu-Gln-Val-Leu-Ala-Gln-Lys (peptide)
10 nM
